Value source: patent US20070265189A1

We begin with a simple list: items and their reported IR/IGF-1R comparison.
Target or test system: T1, soluble human insulin receptor-immunoglobulin heavy chain chimera (sIR-Fc; Bass et al., 1996) (human, UniProt P06213 28-956, limits assumed)
T1 construct: extracellular domain; also called soluble IR (Bass construct); not shown: immunoglobulin heavy chain constant domains
Procedure summary: phage ELISA
API doc: respond with a numeric literal and nothing else, no unit.

Worked examples, 5 binders total:
> print(dat)
                                     binder  recorded.result
1  LGYQEPFQQNFYDWFVRQVSGAENAG [H2CA-3-E8-IGFR]              0.3
2   DSVGDNFYQLLESLVGGHGVG [20E2B-3-D6-IGFR]              0.1
3  AQPCGGFYGLLEQLVGRSVCD [20E2B-4-F10-IGFR]              0.1
4    LQPCSGFYECIERLIGVKLSG [20E2Bβ-4-G7-IR]              0.1
5  DRDFCRFYERLTALVGGQVDGGWPC [20C-3-F6-IGFR]              0.1

Here is another binder to look at.
Input: State the recorded IR/IGF-1R comparison for this entry: LRIANLFYQRLWDLAFGGGG [20E2B-3-E8-IGFR]
Output: 0.1
